# Assay System: Alpha-2A adrenergic receptor (Homo sapiens, UniProt P08913); note: in other assays of this panel Not Active means under 50% inhibition at 10 µM
# Sequence (P08913 whole entry): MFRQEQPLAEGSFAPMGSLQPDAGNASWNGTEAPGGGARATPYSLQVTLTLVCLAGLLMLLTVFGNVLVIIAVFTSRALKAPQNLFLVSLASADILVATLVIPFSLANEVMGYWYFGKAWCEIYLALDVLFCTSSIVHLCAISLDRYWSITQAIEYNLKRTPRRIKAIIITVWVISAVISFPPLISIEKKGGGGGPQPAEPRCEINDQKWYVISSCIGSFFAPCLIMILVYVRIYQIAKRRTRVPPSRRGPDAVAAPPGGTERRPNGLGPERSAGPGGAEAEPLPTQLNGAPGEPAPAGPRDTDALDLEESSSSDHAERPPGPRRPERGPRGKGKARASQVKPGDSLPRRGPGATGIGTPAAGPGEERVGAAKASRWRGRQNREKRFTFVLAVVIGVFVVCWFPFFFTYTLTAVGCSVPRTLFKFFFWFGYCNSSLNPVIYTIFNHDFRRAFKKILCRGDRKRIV
# Format: cell membranes, Sf9, Membrane
# Test Context: read-out: Ki
Property Measured: Ki

N=C(N)c1ccc(OCCCCCOc2ccc(C(=N)N)cc2)cc1	516 nM

For the 3 molecules below, give their Ki values.
1. CN1CCC(=C2c3ccccc3CC(=O)c3sccc32)CC1
2. CCN(CC)CCCC(C)Nc1c2ccc(Cl)cc2nc2ccc(OC)cc12 (stereo unspecified)
3. CN1CCCC(CN2c3ccccc3Sc3ccccc32)C1 (stereo unspecified)

Marked response:
1: 820 nM; 2: 855 nM; 3: 546 nM

For the 2 molecules below, give their Ki values.
1. CC1CCC(NC(=O)N(CCCl)N=O)CC1 (stereo unspecified)
2. CN(C)CCC=C1c2ccccc2CCc2ccccc21

Marked response:
1. 1800 nM
2. 132 nM

* * *

# Assay System: 5-hydroxytryptamine receptor 6 (Homo sapiens, UniProt P50406); note: in other assays of this panel Not Active means under 50% inhibition at 10 µM
# Sequence (P50406 whole entry): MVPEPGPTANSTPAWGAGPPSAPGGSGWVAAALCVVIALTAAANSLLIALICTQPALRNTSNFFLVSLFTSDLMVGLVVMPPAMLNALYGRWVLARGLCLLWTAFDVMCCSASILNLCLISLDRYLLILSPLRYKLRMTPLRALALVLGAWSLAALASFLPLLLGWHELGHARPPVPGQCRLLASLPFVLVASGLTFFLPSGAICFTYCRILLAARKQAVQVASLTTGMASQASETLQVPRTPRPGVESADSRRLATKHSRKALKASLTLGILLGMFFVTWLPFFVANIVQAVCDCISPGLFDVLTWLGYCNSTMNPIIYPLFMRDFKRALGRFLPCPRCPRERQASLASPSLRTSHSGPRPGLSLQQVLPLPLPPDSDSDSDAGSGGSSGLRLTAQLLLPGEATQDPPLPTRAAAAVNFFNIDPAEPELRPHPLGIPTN
# Type: cell membranes, HeLa, Membrane
# Test Context: hela
Property Measured: IC50

CNC1=Nc2ccc(Cl)cc2C(c2ccccc2)=[N+]([O-])C1 [CHLORDIAZEPOXIDE]	Not Active
CS(=O)(=O)Nc1ccc([N+](=O)[O-])cc1Oc1ccccc1 [NIMESULIDE]	Not Active
CC(C)(C)NCC(O)COc1cccc2c1CC(O)C(O)C2 (stereo not drawn)	Not Active
CN1CCN(c2c(F)cc3c(=O)c(C(=O)O)cn(CCF)c3c2F)CC1	Not Active
COc1cccc2c1C(=O)c1c(O)c3c(c(O)c1C2=O)C[C@@](O)(C(C)=O)C[C@@H]3O[C@H]1C[C@H](N)[C@H](O)[C@H](C)O1	Not Active

For the 7 compounds below, give their IC50 values.
1. O=C(O)P(=O)(O)O
2. O=C(O)c1cc(-c2ccc(F)cc2F)ccc1O
3. C[C@]12C=CC(=O)C=C1CC[C@H]1[C@@H]3C[C@@H](O)[C@](O)(C(=O)CO)[C@@]3(C)C[C@H](O)[C@@]12F
4. CC(C)NCC(O)c1ccccc1Cl (stereo not drawn)
5. COc1ccccc1N
6. C[C@]12C=CC(=O)C=C1CC[C@@H]1[C@@H]2C(=O)C[C@@]2(C)[C@H]1CC[C@]2(O)C(=O)CO
7. CC(=O)OCC(=O)[C@@]1(O)CC[C@H]2[C@@H]3CCC4=CC(=O)CC[C@]4(C)[C@@]3(F)[C@@H](O)C[C@@]21C [FLUDROCORTISONE ACETATE]

Marked response:
1. Not Active
2. Not Active
3. Not Active
4. Not Active
5. Not Active
6. Not Active
7. Not Active

For the 6 compounds below, give their IC50 values.
1. OCCOCCN1CCN(C2=Nc3ccccc3Sc3ccccc32)CC1
2. Nc1cc(-c2ccncc2)c[nH]c1=O
3. COc1cc(OC)c(C(=O)CCCN2CCCC2)c(OC)c1
4. Nc1ccc(S(=O)(=O)NC(=O)c2ccccc2)cc1 [SULFABENZAMIDE]
5. ClC(Cl)(Cl)Cl [CARBON TETRACHLORIDE]
6. CO/N=C(\C(=O)N[C@@H]1C(=O)N2C(C(=O)O)=C(COC(C)=O)CS[C@H]12)c1csc(N)n1

Marked response:
1. Not Active
2. Not Active
3. Not Active
4. Not Active
5. Not Active
6. Not Active

Sourced from ChEMBL document CHEMBL1909046
